- System under test: T1, IL-13Rα2, biotinylated (human, UniProt Q14627 27-343, biotinylated (site not stated))
- T1 chain: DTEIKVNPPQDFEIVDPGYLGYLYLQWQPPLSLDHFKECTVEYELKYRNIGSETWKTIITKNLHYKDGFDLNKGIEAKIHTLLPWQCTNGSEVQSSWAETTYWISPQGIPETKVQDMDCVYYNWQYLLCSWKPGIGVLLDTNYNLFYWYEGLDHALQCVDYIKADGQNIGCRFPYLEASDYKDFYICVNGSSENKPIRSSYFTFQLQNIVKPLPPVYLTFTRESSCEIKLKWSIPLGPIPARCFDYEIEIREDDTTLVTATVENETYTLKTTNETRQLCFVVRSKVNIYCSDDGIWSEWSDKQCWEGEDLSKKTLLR
- Experiment summary: SPR; kinetic
pKd: −log10 of the molar value.
Quantity measured: pKd

IL-13 variant A11 (ligand) PGPVPPSTAVRELIEELINITQNQKAPLCNGSMVWSINRTAGMYCAALESLINVSGCSAIEKTQRMLSGFCPHKVSAGQFSSLHVRSSKIEVAQFVKDLLFHLRTLFREGQFNHHHHHH = 9.41

1: IL-13 variant C11 (ligand) PGPVPPSTAHRELIEELVNITQNQKAPLCNGSMVWSINLTAGMYCAALESLINVSGCSAIEKTQRMLSGFCPHKVSAGQFSSLHVTGRKIEVAQFVKDLLLHLKKLFKEGQFNHHHHHH
2: IL-13 variant D7 (ligand) PGPVPPSTAARELIEELFNITQNQKAPLCNGSMVWSINLTAGMYCAALESLINVSGCSAIEKTKRMLSGFCPHKVSAGQFPSLHVKKTRIEVAQFVKDLLIHLRKLFKEGQFNHHHHHH
3: IL-13 variant B2 (ligand) PGPVPPSTALRELIEELINITQNEKAPLCNGSMVWSINLTAGIYCAALESLINVSGCSAIEKTQRMLSGFCPHKVSAGQFSSLHVTGSKIEVAQFVKDLLYHLRALFREGQFNHHHHHH
4: IL-13 variant C4 (ligand) PGPVPPSTAVRELIEELVNITQNQKAPLCNGSMVWSINLTAGMYCAALESLINVSGCSAIEKTQRMLSGFCPHKVSAGQFSSLHVRDTRIEVAQFVKDLLNHLKELFTEGQFNHHHHHH
(Q) Arrange these 4 binders in increasing order of pKd. Write the labels in rank order as requested.
(A) 3, 4, 2, 1
(3: 8.82, 4: 9.41, 2: 11.52, 1: 13.00)
